Recorded Population Pyknosed Nuclei (%) by entry
Test system: U2OS
test_method_notes: Multiplex assay against U2OS
Assay type: toxicity, cell-based
test_parameters: human, 48 h, 1 µM, compound concentration 1 uM, replicate 1

[
  {
    "molecule": "Cc1ccc(C(=O)Nc2cccc(C(F)(F)F)c2)cc1Nc1nc(-c2cccnc2)nc2c1cnn2C",
    "target_or_system": "U2OS",
    "Population Pyknosed Nuclei (%)": 8
  },
  {
    "molecule": "Cl.O=c1c2cccn2c2ccccc2n1CCCN1CCC(c2ccc(Cl)cc2)CC1",
    "target_or_system": "U2OS",
    "Population Pyknosed Nuclei (%)": 10
  },
  {
    "molecule": "O=C(Nc1ccc(-c2ccnc(Nc3ccc(N4CCOCC4)cc3)n2)cc1)[C@@H]1CCCN1",
    "target_or_system": "U2OS",
    "Population Pyknosed Nuclei (%)": 13
  },
  {
    "molecule": "CN1C2CCC1CC(OC(c1ccc(F)cc1)c1ccc(F)cc1)C2.Cl (stereo not given)",
    "target_or_system": "U2OS",
    "Population Pyknosed Nuclei (%)": 6
  },
  {
    "molecule": "Cc1cc(C)c(S(=O)(=O)N(Cc2ccc(-c3cccc(S(C)(=O)=O)c3)cc2)Cc2ccc(C(F)(F)F)o2)c(C)c1",
    "target_or_system": "U2OS",
    "Population Pyknosed Nuclei (%)": 9
  }
]

###

System: U2OS
test_method_notes: Multiplex assay against U2OS
Format: toxicity, cell-based
test_parameters: human, 12 h, 10 µM, compound concentration 10 uM, replicate 1
reported_property: Population Hoechst High Intensity Objects (%)

[
  {
    "molecule_smiles": "CCc1cccc(CC)c1NC(=O)c1nn(C)c2c1CCc1cnc(Nc3ccc(C(=O)NC4CCN(C)CC4)cc3OC(F)(F)F)nc1-2",
    "number": 5
  },
  {
    "molecule_smiles": "O=C(Nc1ccc(-c2ccnc(Nc3ccc(N4CCOCC4)cc3)n2)cc1)[C@@H]1CCCN1",
    "number": 7
  },
  {
    "molecule_smiles": "C=C1/C(=C\\C=C2/CCC[C@]3(C)[C@@H]([C@H](C)/C=C/[C@H](C)C(C)C)CC[C@@H]23)C[C@@H](O)C[C@@H]1O",
    "number": 9
  }
]

###

Tested on: U2OS
test_method_notes: Multiplex assay against U2OS
Format: toxicity, cell-based
test_parameters: human, 12 h, 10 µM, compound concentration 10 uM, replicate 2
Recorded Population Apoptotic (%) by entry

[
  {
    "compound": "O=C1N/C(=N/c2ccccc2F)S/C1=C\\c1ccc(C(=O)O)cc1",
    "Population Apoptotic (%)": 44
  },
  {
    "compound": "Cc1ccc(C(=O)Nc2cccc(C(F)(F)F)c2)cc1Nc1nc(-c2cccnc2)nc2c1cnn2C",
    "Population Apoptotic (%)": 61
  },
  {
    "compound": "C=C1/C(=C\\C=C2/CCC[C@]3(C)[C@@H]([C@H](C)/C=C/[C@H](C)C(C)C)CC[C@@H]23)C[C@@H](O)C[C@@H]1O",
    "Population Apoptotic (%)": 0
  },
  {
    "compound": "CN(C)C(=O)C(CCN1CCC(O)(c2ccc(Cl)cc2)CC1)(c1ccccc1)c1ccccc1.Cl [LOPERAMIDE HYDROCHLORIDE]",
    "Population Apoptotic (%)": 82
  }
]

###

Recorded Population Pyknosed Nuclei (%) by entry
System: U2OS
test_method_notes: Multiplex assay against U2OS
Assay type: toxicity, cell-based
test_parameters: human, 12 h, 10 µM, compound concentration 10 uM, replicate 2

[
  {
    "compound": "CN1CCN(C(=O)C(C)(C)c2ccc(C(=O)Nc3cn4cc(-c5cc(C(C)(C)C)cc(C(C)(C)C)c5)ccc4n3)cc2)CC1 [T3-CLK-N]",
    "Population Pyknosed Nuclei (%)": 3
  },
  {
    "compound": "CCN1CCN(c2ccc(Nc3cc(N(C)C(=O)Nc4c(Cl)c(OC)cc(OC)c4Cl)ncn3)cc2)CC1 [INFIGRATINIB]",
    "Population Pyknosed Nuclei (%)": 5
  },
  {
    "compound": "CCOC(=O)c1c(C)[nH]c2ccc3c(c12)CN1CCc2cc(OC)ccc2C1O3 (stereo unspecified)",
    "Population Pyknosed Nuclei (%)": 22
  },
  {
    "compound": "CCN1CCN(Cc2ccc(Nc3ncc(F)c(-c4cc(F)c5nc(C)n(C(C)C)c5c4)n3)nc2)CC1.CS(=O)(=O)O",
    "Population Pyknosed Nuclei (%)": 45
  },
  {
    "compound": "CCCS(=O)(=O)Nc1ccc(F)c(C(=O)c2c[nH]c3ncc(Cl)cc23)c1F [PLX-4720]",
    "Population Pyknosed Nuclei (%)": 5
  },
  {
    "compound": "O=C(Nc1ccc(-n2nc(-c3cccnc3)cc2C(F)(F)F)cn1)c1ccc(-c2ccccc2)c(F)c1 [BI 2049]",
    "Population Pyknosed Nuclei (%)": 0
  },
  {
    "compound": "CCc1cccc(CC)c1NC(=O)c1nn(C)c2c1CCc1cnc(Nc3ccc(C(=O)NC4CCN(C)CC4)cc3OC(F)(F)F)nc1-2",
    "Population Pyknosed Nuclei (%)": 17
  },
  {
    "compound": "S=C(NCCCc1c[nH]cn1)NCCCN(Cc1ccc(Cl)c(Cl)c1)c1ccc(Br)cn1",
    "Population Pyknosed Nuclei (%)": 72
  },
  {
    "compound": "COc1cccc2cc(-c3nc([C@H]4CC[C@H](C(=O)O)CC4)n4ncnc(N)c34)[nH]c12 [OSI-027]",
    "Population Pyknosed Nuclei (%)": 7
  },
  {
    "compound": "Cl.O=c1c2cccn2c2ccccc2n1CCCN1CCC(c2ccc(Cl)cc2)CC1",
    "Population Pyknosed Nuclei (%)": 21
  },
  {
    "compound": "Cc1cn(-c2cc(NC(=O)c3ccc(C)c(Nc4nccc(-c5cccnc5)n4)c3)cc(C(F)(F)F)c2)cn1 [NILOTINIB]",
    "Population Pyknosed Nuclei (%)": 9
  },
  {
    "compound": "Cc1cc(C)c(S(=O)(=O)N(Cc2ccc(-c3cccc(S(C)(=O)=O)c3)cc2)Cc2ccc(C(F)(F)F)o2)c(C)c1",
    "Population Pyknosed Nuclei (%)": 8
  },
  {
    "compound": "O=C(Cc1ccc(-c2ccc(OCCN3CCOCC3)cc2)cn1)NCc1ccccc1 [TIRBANIBULIN]",
    "Population Pyknosed Nuclei (%)": 7
  },
  {
    "compound": "Cn1nc(C(F)(F)F)cc1-c1cnc(N2CCc3cc(S(=O)(=O)Nc4c(F)cc(Cl)cc4F)cc(N4CCCC4=O)c32)nc1 [TP-020]",
    "Population Pyknosed Nuclei (%)": 9
  },
  {
    "compound": "Cc1ccc(C(=O)Nc2cccc(C(F)(F)F)c2)cc1Nc1nc(-c2cccnc2)nc2c1cnn2C",
    "Population Pyknosed Nuclei (%)": 39
  },
  {
    "compound": "CN1CCC(=C2c3ccccc3CC(=O)c3sccc32)CC1.O=C(O)/C=C/C(=O)O [KETOTIFEN FUMARATE]",
    "Population Pyknosed Nuclei (%)": 22
  }
]

###

Recorded Population Tubulin-Different-Phenotype (%) by entry
Tested on: U2OS
test_method_notes: Multiplex assay against U2OS
Assay type: toxicity, cell-based
test_parameters: human, 12 h, 10 µM, compound concentration 10 uM, replicate 2
reported_property: Population Tubulin-Different-Phenotype (%)

[
  {
    "compound": "O=C(Cc1ccc(-c2ccc(OCCN3CCOCC3)cc2)cn1)NCc1ccccc1",
    "target_or_system": "U2OS",
    "number": 12
  },
  {
    "compound": "CCCS(=O)(=O)Nc1ccc(F)c(C(=O)c2c[nH]c3ncc(Cl)cc23)c1F",
    "target_or_system": "U2OS",
    "number": 23
  },
  {
    "compound": "COc1cc2ncnc(Nc3ccc(F)c(Cl)c3)c2cc1NC(=O)/C=C/CN1CCCCC1 [DACOMITINIB ANHYDROUS]",
    "target_or_system": "U2OS",
    "number": 18
  },
  {
    "compound": "C=C1/C(=C\\C=C2/CCC[C@]3(C)[C@@H]([C@H](C)/C=C/[C@H](C)C(C)C)CC[C@@H]23)C[C@@H](O)C[C@@H]1O",
    "target_or_system": "U2OS",
    "number": 13
  }
]

###

Tested on: HEK-293T
test_method_notes: Incucyte cell viability with HEK293T; note: filed as whole numbers so only -1 and 0 and 1 occur
Assay type: toxicity, cell-based
test_parameters: human, 18 h, 10 µM, compound concentration 10 uM, replicate number 1, timepoint 18 hours
reported_property: Growth Rate

[
  {
    "compound": "CCC(=N\\O)/C(C)=C/c1ccc(F)c(C)c1 [A-226]",
    "target_or_system": "HEK-293T",
    "number": 0
  },
  {
    "compound": "CC[C@H](CO)Nc1nc(NCc2ccccc2)c2ncn(C(C)C)c2n1 [SELICICLIB]",
    "target_or_system": "HEK-293T",
    "number": 1
  },
  {
    "compound": "CCOC(=O)c1c(C)[nH]c2ccc3c(c12)CN1CCc2cc(OC)ccc2C1O3 (stereo unspecified)",
    "target_or_system": "HEK-293T",
    "number": 0
  },
  {
    "compound": "Cl.O=C(O)Cc1cccc(OCCCN(Cc2cccc(C(F)(F)F)c2Cl)CC(c2ccccc2)c2ccccc2)c1",
    "target_or_system": "HEK-293T",
    "number": 0
  },
  {
    "compound": "CC(C)(C(=O)O)c1ccc(C(O)CCCN2CCC(C(O)(c3ccccc3)c3ccccc3)CC2)cc1.Cl (stereo unspecified) [FEXOFENADINE HYDROCHLORIDE]",
    "target_or_system": "HEK-293T",
    "number": 1
  },
  {
    "compound": "CCc1cccc(CC)c1NC(=O)c1nn(C)c2c1CCc1cnc(Nc3ccc(C(=O)NC4CCN(C)CC4)cc3OC(F)(F)F)nc1-2",
    "target_or_system": "HEK-293T",
    "number": 0
  },
  {
    "compound": "CC(C)OC(=O)C1=CN(C(=O)c2ccc(F)c(F)c2)CC(C)(C)c2c1[nH]c1ccccc21 [TUROFEXORATE ISOPROPYL]",
    "target_or_system": "HEK-293T",
    "number": 0
  },
  {
    "compound": "COc1cc(N2CCC(N3CCN(C)CC3)CC2)ccc1Nc1ncnc(Nc2ccccc2S(=O)(=O)C(C)C)n1 [ASP-3026]",
    "target_or_system": "HEK-293T",
    "number": 0
  },
  {
    "compound": "Cc1c(NC(=O)c2cc(C(N)=O)nc3cc(F)ccc23)c(C(F)(F)F)nn1Cc1ccc(C#N)cc1 [BAY-876]",
    "target_or_system": "HEK-293T",
    "number": 0
  },
  {
    "compound": "CCNc1cc(N[C@H]2CC[C@H](O)CC2)nc(Nc2ccc3c(ccn3Cc3ccccc3)c2)n1",
    "target_or_system": "HEK-293T",
    "number": 0
  },
  {
    "compound": "CN1C2CCC1CC(OC(c1ccc(F)cc1)c1ccc(F)cc1)C2.Cl (stereo unspecified)",
    "target_or_system": "HEK-293T",
    "number": 0
  },
  {
    "compound": "COc1cc(N2CCC(N3CCN(C)CC3)CC2)ccc1Nc1ncc(Cl)c(Nc2ccccc2P(C)(C)=O)n1 [BRIGATINIB]",
    "target_or_system": "HEK-293T",
    "number": 1
  },
  {
    "compound": "Cc1ccc(-c2cnc([C@@]3(O)CC[C@H](C(=O)O)C(C)(C)C3)s2)cc1Nc1cccc(C(F)(F)F)n1 [MRL-SYKi-NC]",
    "target_or_system": "HEK-293T",
    "number": 1
  },
  {
    "compound": "CN1CCN(C(=O)C(C)(C)c2ccc(C(=O)Nc3cn4cc(-c5ccncc5)ccc4n3)cc2)CC1 [T3-CLK]",
    "target_or_system": "HEK-293T",
    "number": 0
  },
  {
    "compound": "CCN1CCN(Cc2ccc(Nc3ncc(F)c(-c4cc(F)c5nc(C)n(C(C)C)c5c4)n3)nc2)CC1.CS(=O)(=O)O",
    "target_or_system": "HEK-293T",
    "number": 0
  },
  {
    "compound": "N#Cc1c[nH]c2c(C(=O)N3CCN(CCc4ccc(F)cc4)CC3)cccc12 [PRUVANSERIN]",
    "target_or_system": "HEK-293T",
    "number": 0
  }
]

Each recorded value in this set is attributed to ChEMBL document CHEMBL4689842.
